- Tested on: mouse macrophages
- TEST METHOD NOTES: stimulated release of TNF-α from mouse macrophages
- Type: cell-based
- CONDITION LABEL: Macrophage; table of 125-132 (one lipid side chain, R and S), mouse macrophages; read-out: EC50 (nM) (mouse)

MOLECULE	SYSTEM TESTED	EC50
CCCCCCCCCCCCNC(=O)[C@H]1CCN(C(=O)c2ccc(C(=O)N3C[C@@H](C(=O)N[C@H]4C[C@@H]4c4ccccc4)[C@H](C(=O)N[C@H]4C[C@@H]4c4ccccc4)C3)cc2)C1 [Compound 131]	mouse macrophages	1000 nM
CCCCCCCCCCNC(=O)[C@@H]1CCN(C(=O)c2ccc(C(=O)N3C[C@@H](C(=O)N[C@H]4C[C@@H]4c4ccccc4)[C@H](C(=O)N[C@H]4C[C@@H]4c4ccccc4)C3)cc2)C1 [Compound 128]	mouse macrophages	2400 nM
CCCCCCCCCCCCNC(=O)[C@@H]1CCN(C(=O)c2ccc(C(=O)N3C[C@@H](C(=O)N[C@H]4C[C@@H]4c4ccccc4)[C@H](C(=O)N[C@H]4C[C@@H]4c4ccccc4)C3)cc2)C1 [Compound 127]	mouse macrophages	700 nM
CCCCCCCCCCCCCCNC(=O)[C@H]1CCN(C(=O)c2ccc(C(=O)N3C[C@@H](C(=O)N[C@H]4C[C@@H]4c4ccccc4)[C@H](C(=O)N[C@H]4C[C@@H]4c4ccccc4)C3)cc2)C1 [Compound 130]	mouse macrophages	240 nM
CCCCCCCCCCCCCCCCNC(=O)[C@@H]1CCN(C(=O)c2ccc(C(=O)N3C[C@@H](C(=O)N[C@H]4C[C@@H]4c4ccccc4)[C@H](C(=O)N[C@H]4C[C@@H]4c4ccccc4)C3)cc2)C1 [Compound 125]	mouse macrophages	> 5000 nM
CCCCCCCCCCCCCCNC(=O)[C@@H]1CCN(C(=O)c2ccc(C(=O)N3C[C@@H](C(=O)N[C@H]4C[C@@H]4c4ccccc4)[C@H](C(=O)N[C@H]4C[C@@H]4c4ccccc4)C3)cc2)C1 [Compound 126]	mouse macrophages	260 nM
CCCCCCCCCCNC(=O)[C@H]1CCN(C(=O)c2ccc(C(=O)N3C[C@@H](C(=O)N[C@H]4C[C@@H]4c4ccccc4)[C@H](C(=O)N[C@H]4C[C@@H]4c4ccccc4)C3)cc2)C1 [Compound 132]	mouse macrophages	1800 nM

meta.source: patent US11040959B2
